- ASSAY_METHOD_TEXT: Solubility of amorphous compound of formula (I) in selected solvents (slurry stirred 4 hours, mother liquor by HPLC)
- Assay type: physicochemical
- ASSAY_CONDITIONS: thermodynamic from solid; Water, 40° C.
- Method: Solubility values of solvents were calculated with respect to the HPLC response factor, set out in FIG. 12. HPLC response factor was calculated for the amorphous compound of formula (I) using samples dissolved in acetonitrile/water 9/1 with the following method: • Column: ZORBAX Eclipse XDB-C18 (150×4.6 mm, 5 μm) • Temperature: 25° C. • Mobile phase: A: 0.05M Sodium ortophosphate/water, B: Acetonitrile • Gradient: from 5% of B to 95% of B in 10 min • Detector: UV λ=220 nm […]
OBSERVABLE: solubility at 4 h

Look at this compound and give its reported solubility at 4 h. `C[n+]1ccn(C[C@@]2(C)[C@H](C(=O)[O-])N3C(=O)C[C@H]3S2(=O)=O)n1`
> 400 mg/mL
